Molecular target: Full-length human importin-α1 (h-importin-α1) (1–526) (human, UniProt P52292 1-526)
Test: ITC
Conditions: both partners purified
Assay metric: pKd
// pKd is dimensionless: -log10 of concentration (M)

Ask | // pKd lookup, key: PKKKRKV (source: synthetic peptide) [SV40 NLS peptide (PKKKRKV)]
Reply | 3.99
